Each record here notes measured pIC50.
- SYSTEM_UNDER_TEST: JAK3 (Homo sapiens)
- Construct: recombinant purified GST-tagged catalytic domain for each enzyme; purchased Invitrogen M4290
- Sequence (P52333 822-1111 limits assumed): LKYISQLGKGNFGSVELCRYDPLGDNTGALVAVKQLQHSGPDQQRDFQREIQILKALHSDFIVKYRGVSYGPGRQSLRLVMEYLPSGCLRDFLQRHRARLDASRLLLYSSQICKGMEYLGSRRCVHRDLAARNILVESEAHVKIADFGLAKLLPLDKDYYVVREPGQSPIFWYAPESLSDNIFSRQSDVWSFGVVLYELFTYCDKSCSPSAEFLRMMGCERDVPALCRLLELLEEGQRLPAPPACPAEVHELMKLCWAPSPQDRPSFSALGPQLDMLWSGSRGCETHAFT
- METHOD_DESCRIPTION: Jak Biochemical HTRF Assay (JAK3)
- COND: recombinant purified GST-tagged catalytic domain, [ATP] 2.9 μM, values given as range classes
pIC50: −log10 of the molar value.

Worked cases, answers included:
CC(C)C(Nc1cncc(-c2c[nH]c3ncc(CNC(=O)C4CCCCC4)cc23)c1)C(=O)NCC(F)(F)F (centres unmarked) :: 6.30 to 8.00
CC1c2ncc(C(F)(F)F)n2CCN1c1cnnc(-c2c[nH]c3ncc(Cl)cc23)n1 (centres unmarked) :: ≥ 8.00
C[C@@H](Nc1cnnc(-c2c[nH]c3ncc(C(N)=O)cc23)n1)C(=O)NCC(F)(F)F :: ≥ 8.00

Report measured pIC50; entry is "CC(C)(Nc1cnnc(-c2c[nH]c3ncc(C#N)cc23)n1)C(=O)NCC(F)(F)F" ≥ 8.00

Report measured pIC50; entry is "CC(C)[C@@H](Nc1cncc(-c2c[nH]c3ncc(C(=O)N4CCC4)cc23)c1)C(=O)NCC(F)(F)F" ≥ 8.00

All values here come from patent US9096598B2.
